experiment: Half life in rhesus monkey at 1 mg/kg, iv or 2 mg/kg, po; format: ADME, organism-based, Macaca mulatta; conditions: in vivo
parameter.measured: half-life
Answer with the figure and its unit, nothing else.

Item under review: C[C@@H](c1ccc(-c2ccc(=O)n(C)c2)cc1)[C@H](N)C(=O)N1CC[C@H](F)C1.O=C(O)C(F)(F)F . Reported half-life? 3.9 h

====

For each entry below, report its clearance value.
experiment: Plasma clearance in rat at 1 mg/kg, iv or 2 mg/kg, po; assay type: ADME, organism-based
Give bare numbers, in mL/min/kg.

// solved cases for clearance follow
structure_notation=C[C@@H](c1ccc(-c2ccc(=O)n(C)c2)cc1)[C@H](N)C(=O)N1CC[C@H](F)C1.O=C(O)C(F)(F)F readout_value=7.7
structure_notation=C[C@@H](c1ccc(-c2cn(C)c(=O)cc2CO)cc1)[C@H](N)C(=O)N1CC[C@H](F)C1.O=C(O)C(F)(F)F readout_value=68.1
structure_notation=C[C@@H](c1ccc(-c2ccc(O)nc2)cc1)[C@H](N)C(=O)N1CC[C@H](F)C1.O=C(O)C(F)(F)F readout_value=35.8

Consider now this further compound.
Query (compound): C[C@@H](c1ccc(-c2ccc(=O)n(C)c2F)cc1)[C@H](N)C(=O)N1CC[C@H](F)C1.O=C(O)C(F)(F)F ; field requested: clearance 11.2

====

test: Plasma clearance in dog at 1 mg/kg, iv or 2 mg/kg, po; format: ADME, organism-based, Canis lupus familiaris
parameter.measured: clearance (mL/min/kg)
Answers are plain numbers, in mL/min/kg.

Which clearance is reported for this compound? C[C@@H](c1ccc(-c2ccc(=O)n(C)c2)cc1)[C@H](N)C(=O)N1CC[C@H](F)C1.O=C(O)C(F)(F)F 4.7

====

assay: Half life in rat at 1 mg/kg, iv or 2 mg/kg, po; assay type: ADME, organism-based; conditions: in vivo
So I've got a bunch of molecules here, and I need their half-life values.
One number for each entry, in h.

Here are 3 molecules together with their reported answers.
structure_notation=C[C@@H](c1ccc(-c2cn(C)c(=O)cc2CO)cc1)[C@H](N)C(=O)N1CC[C@H](F)C1.O=C(O)C(F)(F)F readout_value=2.6
structure_notation=C[C@@H](c1ccc(-c2ccc(=O)n(C)c2F)cc1)[C@H](N)C(=O)N1CC[C@H](F)C1.O=C(O)C(F)(F)F readout_value=1.1
structure_notation=C[C@@H](c1ccc(-c2ccc(=O)n(C)c2)cc1)[C@H](N)C(=O)N1CC[C@H](F)C1.O=C(O)C(F)(F)F readout_value=1.4

Let us examine a further case.
Name the recorded half-life for C[C@@H](c1ccc(-c2ccc(O)nc2)cc1)[C@H](N)C(=O)N1CC[C@H](F)C1.O=C(O)C(F)(F)F . 1.9

Each recorded value in this set is attributed to ChEMBL document CHEMBL1138985.
